# System: c-Abl (mouse)
# Assay Details: phosphorylation enrichment, bacterial display (enrichment ratio); higher = better substrate or ligand; peptides without Tyr show the background;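 also: 11-residue human phosphosite peptides and single-mutation variants displayed on the E. coli surface, counted by deep sequencing, each peptide's frequency after selection divided by its frequency in the unselected input library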;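 also: frequency after pTyr selection over input frequency; kinase dosed for 20-30% of maximal phosphorylation in three min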
// label = rule met if phosphorylation enrichment is not less than 0.8, otherwise rule not met

Sequence	Assigned Category
HFEDGYPGGSD [CTNND1_Y221_YF]	rule not met
SVTSTYSPALN [TP53_Y126_C124S]	rule not met
AKQVGCENAGT [PC_Y304_Y304C]	rule not met
KFEDVYVRICL [B3GALNT1_Y269_G271R]	rule met
NTVLGYFIGCI [GARS1_Y408_R412C]	rule met
YDRREYSRFEK [ITGB7_Y758]	rule met
TEALFYTDDPA [ADPRS_Y75_T79P_YF]	rule met
ARRHPYFFAPE [ALB_Y172_Y174F]	rule not met
DAICYYRMENA [NPHS2_Y195]	rule met
ISSLLYELLEE [TRPC6_Y896_R895L]	rule met
DNEALYDICFC [TUBB3_Y208_R213C]	rule met
KDAGDYKYKAK [LRIT3_Y326_C328Y]	rule not met

###

# Target Desc: EPHB2 (UniProt P29323)
# Sequence (P29323 whole entry, looked up): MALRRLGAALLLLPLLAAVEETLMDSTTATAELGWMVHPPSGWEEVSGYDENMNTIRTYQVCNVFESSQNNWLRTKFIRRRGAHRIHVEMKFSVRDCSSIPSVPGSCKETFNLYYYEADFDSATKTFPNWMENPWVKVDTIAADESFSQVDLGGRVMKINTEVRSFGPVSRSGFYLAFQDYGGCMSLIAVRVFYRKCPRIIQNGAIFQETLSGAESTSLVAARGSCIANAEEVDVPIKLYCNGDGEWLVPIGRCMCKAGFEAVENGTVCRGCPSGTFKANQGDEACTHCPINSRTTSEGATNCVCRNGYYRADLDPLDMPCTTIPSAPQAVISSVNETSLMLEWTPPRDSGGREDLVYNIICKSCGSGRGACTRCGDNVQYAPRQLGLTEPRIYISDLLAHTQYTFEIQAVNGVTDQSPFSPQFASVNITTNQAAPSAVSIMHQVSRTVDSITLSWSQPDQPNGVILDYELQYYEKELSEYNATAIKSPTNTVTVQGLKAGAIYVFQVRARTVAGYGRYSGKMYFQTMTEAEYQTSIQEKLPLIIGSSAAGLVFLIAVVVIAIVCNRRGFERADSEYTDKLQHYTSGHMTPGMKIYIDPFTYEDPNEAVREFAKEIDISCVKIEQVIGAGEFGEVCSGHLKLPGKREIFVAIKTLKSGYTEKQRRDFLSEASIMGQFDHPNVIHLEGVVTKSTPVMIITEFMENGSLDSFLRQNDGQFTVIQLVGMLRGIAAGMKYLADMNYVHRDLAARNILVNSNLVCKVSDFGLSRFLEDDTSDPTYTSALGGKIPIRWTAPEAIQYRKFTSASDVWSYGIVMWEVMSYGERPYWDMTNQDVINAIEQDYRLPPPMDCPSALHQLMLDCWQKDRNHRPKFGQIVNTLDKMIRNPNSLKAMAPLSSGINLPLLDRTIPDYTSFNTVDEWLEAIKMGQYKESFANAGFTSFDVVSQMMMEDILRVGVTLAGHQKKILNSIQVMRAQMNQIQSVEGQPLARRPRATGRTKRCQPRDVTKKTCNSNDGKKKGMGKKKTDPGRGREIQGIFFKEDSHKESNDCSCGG
# Assay Details: phosphorylation enrichment, bacterial display (enrichment ratio); higher = better substrate or ligand; peptides without Tyr show the background
// label = 1.0 if phosphorylation enrichment is not less than 0.6, otherwise 0.0

Sequence	Assigned Category
IGLHAYGDQFR [IDH1_Y135_R132L_YF]	0.0
YPSLPYSPVSS [CAMKK2_Y128_C123Y]	0.0
SVVVPYEPPDV [TP53_Y220_E224D]	0.0
KERNQYGEVMV [MMP21_Y347]	0.0
AKQVGCENAGT [PC_Y304_Y304C]	0.0
MIRSAYALRGL [CPS1_Y590_G593R]	0.0
RVILRYVNPGT [LAMA3_Y791]	1.0
VIESSYQVAKA [CPT1B_Y534]	0.0
RKLVDYDSAQH [BIN1_Y150_R154Q]	1.0
VIEQRYNETWL [SLC2A4_Y56_S55R]	0.0
RKQQLYIAMEE [CCDC39_Y593_T594I]	1.0
REGAKYVSHCA [ASS1_Y113_G117C]	0.0
SLVVPYEPPEV [TP53_Y220_V216L]	1.0
VEDHFYEGGIG [TKT_Y564_YF]	0.0
FRPHLYGTPSR [ADGRE2_Y670_S665F]	0.0
IAAEYYDNLPH [DEGS1_Y284]	1.0
ALDHKYHGGGG [HBB_Y146_A143D]	0.0
KPGLKYVTFGN [GALNTL5_Y404_YF]	0.0
IYQASYYRRGD [LTK_Y676_R673Q]	1.0
KELAKYYKLHH [AK7_Y390_N389K]	0.0
RRSQSYNPTSG [PLEKHA2_Y185_I186N]	0.0
TEQMAYCPIQC [SHC4_Y403]	1.0
CNPLCYPTIMI [OR6K6_Y160_R159C]	0.0
TLERHYKELQA [SPTBN2_Y834_E835K]	0.0
IINENYDYLKG [NUP98_Y1664]	1.0
ETGEPYRLSPE [EIF4G1_Y311]	1.0
KRPAVYIDEEA [EPM2A_Y304]	0.0
DDKEYYSVHNK [MET_Y1235_Y1230D]	1.0
LWEGSYGKVKE [STK11_Y60_G56W]	0.0
SVVVPYEPPEF [TP53_Y220_V225F]	0.0
YRAVKYLQMVG [AVPR2_Y117_C112Y]	0.0
NMRSTYAKLAA [SEC22B_Y193_H190R]	0.0
PEYVVYKPQME [CCRL2_Y170_F167Y]	1.0
ENGPFYTSFPP [GDAP2_Y488_YF]	1.0
LAVGDYMRRQK [ATM_Y1915_V1913G]	0.0
SAPDSYIGIGN [SLC38A4_Y27]	0.0
SDYSSYARTSI [TERT_Y949]	1.0
CTTIHYNYMCH [TP53_Y234_N239H]	1.0
NTFEKYLGEEF [TF_Y669_YF]	0.0
MKGDFYCFLAE [YWHAG_Y131_R132C_YF]	1.0
NLVSEYQQYQD [TUBB3_Y422_D417N]	1.0
RPAPQYPHQVP [ADAM12_Y895]	0.0
ITNLLYHVVGG [GBA_Y412_W417G]	1.0
QCTSAYPLQPE [NANS_Y188]	1.0
RDMMDYMLQGV [CYP21A2_Y259]	1.0
QIGRKYKKVRF [F8_Y442_R437Q]	0.0
PLQDVYKIGGI [EEF1A2_Y254]	0.0
GGGGSYNNFGN [HNRNPA1_Y312_D314N]	0.0
KAEELYIGVTV [EFHC2_Y509]	1.0
